Just for reference, patent US8410151B2 is where these values come from.

# system_tested: recombinant human S1P1 receptor (Homo sapiens, UniProt P21453)
# Sequence (P21453 whole entry): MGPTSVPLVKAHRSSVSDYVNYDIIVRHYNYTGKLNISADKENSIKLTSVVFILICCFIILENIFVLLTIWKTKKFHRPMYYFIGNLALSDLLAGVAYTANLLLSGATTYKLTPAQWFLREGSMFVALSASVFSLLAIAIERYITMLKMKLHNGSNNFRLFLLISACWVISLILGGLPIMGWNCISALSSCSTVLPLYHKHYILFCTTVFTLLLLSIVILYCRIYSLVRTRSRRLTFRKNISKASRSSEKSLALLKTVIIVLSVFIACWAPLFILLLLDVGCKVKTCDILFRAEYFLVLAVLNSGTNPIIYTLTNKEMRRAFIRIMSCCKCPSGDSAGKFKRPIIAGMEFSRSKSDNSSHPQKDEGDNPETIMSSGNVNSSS
# experimental_protocol: GTPγS assay to determine EC50 values
# Format: biochemical
# condition_notes: 35S-GTPγS binding, membrane preparations of CHO cells expressing recombinant human S1P1 receptor
reported_property: pEC50
Numbers only, as −log10 of the molar value.

Your task in this section: give pEC50 for each listed record.
1. CCc1cc(-c2nc(-c3cc(C)c(OC[C@@H](O)CNC(=O)CO)c(CC)c3)no2)ccc1CN(C)CC [Example 100]
2. CCc1cc(-c2noc(-c3cc(C)cc(CN4CCCC4)c3)n2)cc(C)c1OC[C@@H](O)CNC(=O)CO [Example 22]
3. CCN(C)Cc1cc(C)cc(-c2nc(-c3cc(C)c(OC[C@@H](O)CNC(=O)CO)c(C)c3)no2)c1 [Example 147]
4. CCc1cc(-c2noc(-c3cc(C)cc(CN(C)CC)c3)n2)cc(C)c1OC[C@@H](O)CNC(=O)CO [Example 16]
5. CCCN(C)Cc1cc(CC)cc(-c2nc(-c3cc(C)c(OC[C@@H](O)CNC(=O)CO)c(CC)c3)no2)c1 [Example 51]

-- reply
1. 8.80
2. 8.15
3. 8.70
4. 8.57
5. 8.62

Your task in this section: give pEC50 for each listed record.
1. CCCCN(C)Cc1cc(-c2nc(-c3cc(C)c(OC[C@@H](O)CNC(=O)CO)c(CC)c3)no2)cc(C(C)C)c1 [Example 72]
2. CCc1cc(CN(C)C)cc(-c2nc(-c3cc(C)c(OC[C@@H](O)CNC(=O)CO)c(CC)c3)no2)c1 [Example 49]

-- reply
1: 8.64; 2: 8.43

###

Consider the following compounds; for each one, report its EC50.
# system_tested: recombinant human S1P1 receptor (Homo sapiens)
# experimental_protocol: GTPγS assay to determine EC50 values
# Type: biochemical
# condition_notes: 35S-GTPγS binding, membrane preparations of CHO cells expressing recombinant human S1P1 receptor
Give bare numbers, in nM.

INSERT INTO measurements (chem_smiles, numeric_readout) VALUES
  ('CCCCN(C)Cc1cc(CCC)cc(-c2nc(-c3cc(C)c(OC[C@@H](O)CNC(=O)CO)c(CC)c3)no2)c1', 3.1),
  ('CCc1cc(-c2noc(-c3cc(CN4CCCC4)cc(C(C)C)c3)n2)cc(C)c1OC[C@@H](O)CNC(=O)CO', 7.2),
  ('CCCCN(C)Cc1cc(C)cc(-c2nc(-c3cc(C)c(OC[C@@H](O)CNC(=O)CO)c(CC)c3)no2)c1', 3.3);

-- ask Requested read-out: EC50. Entry: CCc1cc(-c2noc(-c3cc(CN(C)CC(C)C)cc(C(C)C)c3)n2)cc(C)c1OC[C@@H](O)CNC(=O)CO
-- reply 2
